Parameter pIC50: see the listing below.
system: MDA-MB-435; assay: Antiproliferative activity against MDA-MB-435 human breast carcinoma cells in vitro using MDA-MB-435 monolayer growth assay.; type: functional
Answer as the number alone; pIC50 is minus log10 of concentration in mol/L.

Some solved cases for reference:
| Compound | pIC50 |
| --- | --- |
| CO[C@@H](C(=O)NC1CC[C@@H](OC(=O)C2CCCC2)CNC1=O)[C@H](O)[C@@H](O)[C@H](O)/C=C/C(C)(C)C (stereo partly drawn) | 6.89 |
| CO[C@@H](C(=O)NC1CC[C@@H](OC(=O)/C=C/c2ccccc2)CNC1=O)[C@H](O)[C@@H](O)[C@H](O)/C=C/C(C)(C)C (stereo partly drawn) | 7.70 |

// next entry
Value of measured pIC50 for the entry CCCCCc1ccc(C(=O)O[C@@H]2CCC(NC(=O)[C@H](OC)[C@H](O)[C@@H](O)[C@H](O)/C=C/C(C)(C)C)C(=O)NC2)cc1 (stereo partly drawn) : 7.70

====

Parameter IC50: see the listing below.
tested on: MDA-MB-435; test: Antiproliferative activity against MDA-MB-435 human breast carcinoma cells in vitro using MDA-MB-435 monolayer growth assay.; type: functional
All answers are understood in nM, so give the number only.

Some solved cases for reference:
| Compound | Readout unit | IC50 |
| --- | --- | --- |
| CO[C@@H](C(=O)NC1CC[C@@H](OC(=O)c2ccccc2)CNC1=O)[C@H](O)[C@@H](O)[C@H](O)/C=C/C(C)(C)C (stereo partly drawn) | nM | 370 |
| CO[C@@H](C(=O)NC1CC[C@@H](OC(=O)CCc2cccnc2)CNC1=O)[C@H](O)[C@@H](O)[C@H](O)/C=C/C(C)(C)C (stereo partly drawn) | nM | 460 |
| CCCCCCCCCCc1ccc(C(=O)O[C@@H]2CCC(NC(=O)[C@H](OC)[C@H](O)[C@@H](O)[C@H](O)/C=C/C(C)(C)C)C(=O)NC2)cc1 (stereo partly drawn) | nM | 30 |

Value of measured IC50 for the entry COc1cccc2c1C(=O)c1c(O)c3c(c(O)c1C2=O)C[C@@](O)(C(=O)CO)C[C@@H]3O[C@H]1C[C@H](N)[C@H](O)[C@H](C)O1 : 400

Value of measured IC50 for the entry CCCCCCCCCCOc1ccc(C(=O)O[C@@H]2CCC(NC(=O)[C@H](OC)[C@H](O)[C@@H](O)[C@H](O)/C=C/C(C)(C)C)C(=O)NC2)cc1 (stereo partly drawn) : 10

Value of measured IC50 for the entry CO[C@@H](C(=O)NC1CC[C@@H](OC(=O)Cc2cccnc2)CNC1=O)[C@H](O)[C@@H](O)[C@H](O)/C=C/C(C)(C)C (stereo partly drawn) : 5850

Value of measured IC50 for the entry CO[C@@H](C(=O)NC1CC[C@@H](OC(=O)Cc2ccccc2)CNC1=O)[C@H](O)[C@@H](O)[C@H](O)/C=C/C(C)(C)C (stereo partly drawn) : 260

====

test system: MDA-MB-435; test: In vivo percent T/C against MDA-MB-435 human breast carcinoma cells implanted sc in mice at a dose 10 umol/kg; format: functional
Parameter T/C: see the listing below.
All answers are understood in %, so give the number only.

Some solved cases for reference:
| Compound | Readout unit | T/C |
| --- | --- | --- |
| CCCCCc1ccc(C(=O)O[C@@H]2CCC(NC(=O)[C@H](OC)[C@H](O)[C@@H](O)[C@H](O)/C=C/C(C)(C)C)C(=O)NC2)cc1 (some centres undefined) | % | 111 |
| CO[C@@H](C(=O)NC1CC[C@@H](OC(=O)Cc2cccnc2)CNC1=O)[C@H](O)[C@@H](O)[C@H](O)/C=C/C(C)(C)C (some centres undefined) | % | 69 |
| CO[C@@H](C(=O)NC1CC[C@@H](OC(=O)C2CCCC2)CNC1=O)[C@H](O)[C@@H](O)[C@H](O)/C=C/C(C)(C)C (some centres undefined) | % | 67 |
| CO[C@@H](C(=O)NC1CC[C@@H](OC(=O)c2ccccc2)CNC1=O)[C@H](O)[C@@H](O)[C@H](O)/C=C/C(C)(C)C (some centres undefined) | % | 93 |
| CO[C@@H](C(=O)NC1CC[C@@H](OC(=O)Cc2ccccc2)CNC1=O)[C@H](O)[C@@H](O)[C@H](O)/C=C/C(C)(C)C (some centres undefined) | % | 72 |

Value of measured T/C for the entry CO[C@@H](C(=O)NC1CC[C@@H](OC(=O)CCc2cccnc2)CNC1=O)[C@H](O)[C@@H](O)[C@H](O)/C=C/C(C)(C)C (some centres undefined) : 92

Value of measured T/C for the entry CCCCCCCCCCc1ccc(C(=O)O[C@@H]2CCC(NC(=O)[C@H](OC)[C@H](O)[C@@H](O)[C@H](O)/C=C/C(C)(C)C)C(=O)NC2)cc1 (some centres undefined) : 76

====

system: MDA-MB-435; experiment: In vivo percent T/C against MDA-MB-435 human breast carcinoma cells implanted sc in mice at a dose 33 umol/Kg; assay type: functional
Parameter T/C: see the listing below.

Value of measured T/C for the entry CO[C@@H](C(=O)NC1CC[C@@H](OC(=O)C2CCCCC2)CNC1=O)[C@H](O)[C@@H](O)[C@H](O)/C=C/C(C)(C)C (stereo not given in full) : <7%

Value of measured T/C for the entry CO[C@@H](C(=O)NC1CC[C@@H](OC(=O)CC2CCCCC2)CNC1=O)[C@H](O)[C@@H](O)[C@H](O)/C=C/C(C)(C)C (stereo not given in full) : <34%

Value of measured T/C for the entry CO[C@@H](C(=O)NC1CC[C@@H](OC(=O)/C=C/c2ccccc2)CNC1=O)[C@H](O)[C@@H](O)[C@H](O)/C=C/C(C)(C)C (stereo not given in full) : <63%

Value of measured T/C for the entry CO[C@@H](C(=O)NC1CC[C@@H](OC(=O)C2CCCC2)CNC1=O)[C@H](O)[C@@H](O)[C@H](O)/C=C/C(C)(C)C (stereo not given in full) : <13%

Value of measured T/C for the entry CCCCCCCCCCc1ccc(C(=O)O[C@@H]2CCC(NC(=O)[C@H](OC)[C@H](O)[C@@H](O)[C@H](O)/C=C/C(C)(C)C)C(=O)NC2)cc1 (stereo not given in full) : <6%

Value of measured T/C for the entry CO[C@@H](C(=O)NC1CC[C@@H](OC(=O)CCc2cccnc2)CNC1=O)[C@H](O)[C@@H](O)[C@H](O)/C=C/C(C)(C)C (stereo not given in full) : <44%

Value of measured T/C for the entry CCCCCc1ccc(C(=O)O[C@@H]2CCC(NC(=O)[C@H](OC)[C@H](O)[C@@H](O)[C@H](O)/C=C/C(C)(C)C)C(=O)NC2)cc1 (stereo not given in full) : 91%

Value of measured T/C for the entry CCCCCCCCCCOc1ccc(C(=O)O[C@@H]2CCC(NC(=O)[C@H](OC)[C@H](O)[C@@H](O)[C@H](O)/C=C/C(C)(C)C)C(=O)NC2)cc1 (stereo not given in full) : 2%

Value of measured T/C for the entry CCCCCCCCCCCCCC(=O)O[C@@H]1CCC(NC(=O)[C@H](OC)[C@H](O)[C@@H](O)[C@H](O)/C=C/C(C)(C)C)C(=O)NC1 (stereo not given in full) : <4%

Value of measured T/C for the entry CO[C@@H](C(=O)NC1CC[C@@H](OC(=O)c2ccccc2)CNC1=O)[C@H](O)[C@@H](O)[C@H](O)/C=C/C(C)(C)C (stereo not given in full) : 80%

Value of measured T/C for the entry CO[C@@H](C(=O)NC1CC[C@@H](OC(=O)C2CCCCCC2)CNC1=O)[C@H](O)[C@@H](O)[C@H](O)/C=C/C(C)(C)C (stereo not given in full) : <28%

Value of measured T/C for the entry CCCCCCCCCCCCCC(=O)O[C@H]1CCC(NC(=O)[C@H](OC)[C@H](O)[C@@H](O)[C@H](O)/C=C/C(C)(C)C)C(=O)N(C)C1 (stereo not given in full) : <46%

Value of measured T/C for the entry CO[C@@H](C(=O)NC1CC[C@@H](OC(=O)Cc2ccccc2)CNC1=O)[C@H](O)[C@@H](O)[C@H](O)/C=C/C(C)(C)C (stereo not given in full) : <43%

Value of measured T/C for the entry CO[C@@H](C(=O)NC1CC[C@@H](OC(=O)Cc2cccnc2)CNC1=O)[C@H](O)[C@@H](O)[C@H](O)/C=C/C(C)(C)C (stereo not given in full) : 82%

Value of measured T/C for the entry CO[C@@H](C(=O)NC1CC[C@@H](OC(=O)CCc2ccccc2)CNC1=O)[C@H](O)[C@@H](O)[C@H](O)/C=C/C(C)(C)C (stereo not given in full) : <12%
